IC50 reference
molecular target: UniProt:G5EFZ1; test: PGM enzyme-coupled bioluminescent end point assay (Kinase-Glo Plus); type: biochemical; conditions: pIC50, apparent C. elegans iPGM
Positions of bridges follow the written chain, without caps; N, C: chain ends. Non-standard residues stand in square brackets, D forms with d. Residues, ends and D or L forms follow the SMILES beside them.

compound	IC50
CC(C)C[C@H](NC(=O)[C@H](Cc1ccc(O)cc1)NC(=O)[C@@H]1CSCC(=O)N[C@H](Cc2ccc(O)cc2)C(=O)N[C@@H](CC(=O)O)C(=O)N[C@@H](Cc2ccc(O)cc2)C(=O)N2CCC[C@H]2C(=O)NCC(=O)N[C@@H](CC(=O)O)C(=O)N[C@@H](Cc2ccc(O)cc2)C(=O)N1)C(=O)N[C@@H](Cc1ccc(O)cc1)C(=O)NCC(=O)N[C@H](C(=O)N[C@@H](CS)C(=O)NCC(N)=O)[C@@H](C)O	0.00224 µM
CC(C)[C@@H]1NC(=O)[C@H](C)NC(=O)[C@@H](Cc2ccc(O)cc2)NC(=O)CSC[C@@H](C(=O)N[C@@H](CCCNC(=N)N)C(=O)N[C@H](C(=O)N[C@@H](CS)C(=O)NCC(N)=O)[C@@H](C)O)NC(=O)[C@H](CC(N)=O)NC(=O)[C@@H]2CCCN2C(=O)[C@H](Cc2c[nH]c3ccccc23)NC1=O [Bm-7] ({CH2CO}-[dY]AVWPNCRTCG-NH2; thioether N-7)	7.41 µM
CC(C)C[C@H](NC(=O)[C@H](Cc1ccc(O)cc1)NC(=O)[C@@H]1CSCC(=O)N[C@H](Cc2ccc(O)cc2)C(=O)N[C@@H](CC(=O)O)C(=O)N[C@@H](Cc2ccc(O)cc2)C(=O)N2CCC[C@H]2C(=O)NCC(=O)N[C@@H](CC(=O)O)C(=O)N[C@@H](Cc2c[nH]cn2)C(=O)N1)C(=O)N[C@@H](Cc1ccc(O)cc1)C(=O)NCC(=O)N[C@H](C(=O)N[C@@H](CS)C(=O)NCC(N)=O)[C@@H](C)O	0.00398 µM
CC(C)C[C@@H]1NC(=O)[C@@H](Cc2ccc(O)cc2)NC(=O)CSC[C@@H](C(=O)N[C@@H](CO)C(=O)N[C@H](C(=O)N[C@@H](CS)C(=O)NCC(N)=O)[C@@H](C)O)NC(=O)[C@H](CC(N)=O)NC(=O)[C@@H]2CCCN2C(=O)[C@H](Cc2c[nH]c3ccccc23)NC(=O)[C@H](CC(=O)O)NC1=O [Bm-5] ({CH2CO}-[dY]LDWPNCSTCG-NH2; thioether N-7)	2.51 µM
CC(C)C[C@@H]1NC(=O)[C@@H](Cc2ccc(O)cc2)NC(=O)CSC[C@@H](C(=O)N[C@@H](CC(N)=O)C(=O)N[C@H](C(=O)N[C@@H](CS)C(=O)NCC(N)=O)[C@@H](C)O)NC(=O)[C@H](CC(N)=O)NC(=O)[C@@H]2CCCN2C(=O)[C@H](Cc2c[nH]c3ccccc23)NC(=O)[C@H](CCC(=O)O)NC1=O [Bm-4] ({CH2CO}-[dY]LEWPNCNTCG-NH2; thioether N-7)	2.45 µM

====

Target: C. elegans iPGM (Caenorhabditis elegans)
Sequence (G5EFZ1 1-539): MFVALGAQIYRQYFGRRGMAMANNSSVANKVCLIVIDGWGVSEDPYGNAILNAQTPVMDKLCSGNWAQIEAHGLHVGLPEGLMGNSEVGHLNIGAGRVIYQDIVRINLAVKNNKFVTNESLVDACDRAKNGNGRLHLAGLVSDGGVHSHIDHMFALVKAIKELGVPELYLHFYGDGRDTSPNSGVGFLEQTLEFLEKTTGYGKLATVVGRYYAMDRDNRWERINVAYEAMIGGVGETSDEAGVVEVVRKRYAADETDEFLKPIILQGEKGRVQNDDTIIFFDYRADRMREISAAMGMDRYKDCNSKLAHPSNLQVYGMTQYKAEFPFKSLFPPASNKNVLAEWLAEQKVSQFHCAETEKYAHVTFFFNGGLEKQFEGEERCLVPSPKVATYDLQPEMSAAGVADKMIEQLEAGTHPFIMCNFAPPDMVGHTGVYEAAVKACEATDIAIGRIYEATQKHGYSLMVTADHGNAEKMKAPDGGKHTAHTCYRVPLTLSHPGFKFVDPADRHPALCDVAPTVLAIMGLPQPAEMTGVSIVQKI
Assay: PGM enzyme-coupled bioluminescent end point assay (Kinase-Glo Plus)
Format: biochemical
Conditions: pIC50, apparent C. elegans iPGM
pIC50: −log10 of the molar value. Positions of bridges follow the written chain, without caps; N, C: chain ends. Non-standard residues stand in square brackets, D forms with d. Residues, ends and D or L forms follow the SMILES beside them.
pIC50 reference
metric: pIC50

molecule	measured_target	metric	recorded_value
C[C@@H](O)[C@H](NC(=O)[C@H](CO)NC(=O)[C@@H]1CSCC(=O)N[C@H](Cc2ccc(O)cc2)C(=O)N2CCC[C@H]2C(=O)N[C@@H](CCC(=O)O)C(=O)N[C@@H](Cc2c[nH]c3ccccc23)C(=O)N2CCC[C@H]2C(=O)N[C@@H](CC(N)=O)C(=O)N1)C(=O)N[C@@H](CS)C(=O)NCC(N)=O [Bm-6] ({CH2CO}-[dY]PEWPNCSTCG-NH2; thioether N-7)	C. elegans iPGM (Caenorhabditis elegans)	pIC50	5.58
CC[C@H](C)[C@@H]1NC(=O)[C@H](CCC(=O)O)NC(=O)[C@@H]2CCCN2C(=O)[C@H](C)NC(=O)[C@H](CC(N)=O)NC(=O)[C@@H]2CCCN2C(=O)[C@H](Cc2c[nH]c3ccccc23)NC(=O)[C@H](CO)NC(=O)[C@@H](Cc2ccc(O)cc2)NC(=O)CSC[C@@H](C(=O)N[C@@H](CS)C(=O)NCC(N)=O)NC(=O)[C@H](CCCCN)NC(=O)[C@H](Cc2c[nH]c3ccccc23)NC1=O [Bm-1] ({CH2CO}-[dY]SWPNAPEIWKCCG-NH2; thioether N-12)	C. elegans iPGM (Caenorhabditis elegans)	pIC50	5.30
